Parameter IC50: see the listing below.
# TARGET OR TEST SYSTEM: CYP2C9 (Homo sapiens)
# Construct: purchased Gentest
# Sequence (P11712 whole entry): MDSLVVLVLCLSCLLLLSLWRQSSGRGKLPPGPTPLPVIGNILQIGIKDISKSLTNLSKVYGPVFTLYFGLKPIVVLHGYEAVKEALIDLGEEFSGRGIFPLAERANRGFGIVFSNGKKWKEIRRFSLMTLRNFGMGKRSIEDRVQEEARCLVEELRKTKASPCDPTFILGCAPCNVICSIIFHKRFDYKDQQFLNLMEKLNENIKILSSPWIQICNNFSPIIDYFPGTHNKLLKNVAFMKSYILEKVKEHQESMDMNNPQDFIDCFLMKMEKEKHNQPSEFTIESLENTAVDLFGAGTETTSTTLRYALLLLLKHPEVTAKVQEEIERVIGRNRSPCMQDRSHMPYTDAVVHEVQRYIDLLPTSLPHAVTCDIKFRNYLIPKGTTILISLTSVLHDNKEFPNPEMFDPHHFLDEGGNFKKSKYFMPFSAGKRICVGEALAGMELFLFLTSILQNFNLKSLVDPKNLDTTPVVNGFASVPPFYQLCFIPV
# ASSAY NOTES: Cytochrome P450 assay (Gentest Kit), CYP2C9
# Format: in vitro ADME
# MEASUREMENT PARAMETERS: human recombinant isoenzyme, substrate 7-methoxy-4-trifluoromethylcoumarin; read-out: CYP2C9 IC50
RECORDED METRIC: IC50 (µM)

MOLECULE	TARGET OR TEST SYSTEM	RECORDED METRIC	VALUE UNITS	TEST VALUE
C[C@@H](NCc1ccc(OCc2ccccc2F)c(Cc2ccccc2F)c1)C(N)=O [Impurity (II′d), methanesulfonate]	CYP2C9 (Homo sapiens)	IC50	µM	4.34
C[C@@H](NCc1ccc(OCc2cccc(F)c2)c(Cc2cccc(F)c2)c1)C(N)=O [Impurity (II′c), methanesulfonate]	CYP2C9 (Homo sapiens)	IC50	µM	4.94
